Kindly supply the reported inhibition values for the records listed here.
# targetOfAssay: Beta-secretase 1 (Homo sapiens)
# test: Inhibition of recombinant BACE1 (unknown origin) using synthetic dodecapeptide with BACE1 cleavage sequence of Swedish type as substrate at 2 mM after 30 mins

// query Requested read-out inhibition, target or system Beta-secretase 1 (Homo sapiens), entry COc1cccc(CCCCc2cccc(NC(C)=O)n2)c1
// result 21%

// query Proceed to COc1cccc(CCCCc2ccc(NC(C)=O)nc2)c1
// result 20%

// query Proceed to COc1cccc(C(O)CCCCc2ccc(NC(C)=O)nc2)c1 (stereo unspecified)
// result 20%

// query Proceed to COCOc1ccc(C(=O)Nc2ccc(CCCCC(O)c3cccc(OC)c3)cn2)cc1 (stereo unspecified)
// result 19%

// query Proceed to COc1cccc(C(O)CCCCc2cccc(NC(C)=O)n2)c1 (stereo unspecified)
// result 56%

// query Proceed to COc1cccc(C(O)CCc2cccnc2NC(C)=O)c1 (stereo unspecified)
// result 18%
